Source listed as ChEMBL document CHEMBL1921714.

# target-of-assay: Kappa-type opioid receptor (Homo sapiens, UniProt P41145)
# Sequence (P41145 whole entry): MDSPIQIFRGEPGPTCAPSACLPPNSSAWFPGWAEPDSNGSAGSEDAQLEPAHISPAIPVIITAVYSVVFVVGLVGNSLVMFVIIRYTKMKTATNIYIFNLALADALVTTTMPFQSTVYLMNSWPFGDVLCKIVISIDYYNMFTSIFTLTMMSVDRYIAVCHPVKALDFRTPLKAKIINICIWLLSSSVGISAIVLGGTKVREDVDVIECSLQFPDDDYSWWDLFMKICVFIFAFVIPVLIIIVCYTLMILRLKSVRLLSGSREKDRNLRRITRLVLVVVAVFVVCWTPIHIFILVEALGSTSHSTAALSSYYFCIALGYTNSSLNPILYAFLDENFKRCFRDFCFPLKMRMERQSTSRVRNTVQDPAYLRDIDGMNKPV
measurement-label: pKi
# pKi = -log10(concentration in molar units)

compound: NC(=O)c1ccc(Oc2ccc(CN3CCCC3c3cccnc3)cc2)c(Cl)c1 (racemic)
measurement-label: pKi
observed-result: 9.21

-- ask State measured pKi of the compound `NC(=O)c1ccc(Oc2ccc(CN3CCC[C@@H]3c3cccc(F)c3)cc2)c(F)c1` with Kappa-type opioid receptor (Homo sapiens, UniProt P41145).
-- reply 7.27

-- ask Under Kappa-type opioid receptor (Homo sapiens, UniProt P41145): report pKi of `NC(=O)c1ccc(Oc2ccc(CN3CCC[C@H]3c3cccc(F)c3)cc2)c(F)c1` .
-- reply 9.25

-- ask Param request: pKi | system Kappa-type opioid receptor (Homo sapiens, UniProt P41145) | item `CC1(C)CN(Cc2ccc(Oc3ccc(C(N)=O)cn3)cc2)[C@H]1c1ccccc1`
-- reply 7.57
